// reported normalized growth per item
# experiment description: chemical genetic growth profiling, strain panel (AID 1159580);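 note: tested at 20 µM; growth read once vehicle control cultures reached saturation at 30 °C; 1 = growth at the plate median or of vehicle wells; lower values mean less growth of the strain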
# condition info: S. cerevisiae deletion strains, growth OD, locus YHR205W, strain SCH9, active compounds read low
Among all 5,500 compounds or so, about 2,000 (36%) were called active. Roughly 18% stayed inconclusive and do not appear here. Some of the results follow.
# print the numeric value only

{"molecule": "Cc1c(Cl)cccc1NC(=S)N1CCCN(c2nc3ccc(Cl)cc3s2)CC1", "normalized growth": 0.97}
{"molecule": "C/C(=N/NC(N)=S)c1ccccn1", "normalized growth": 0.957}
{"molecule": "O=C(C=C(O)c1ccc(Br)cc1)C(=O)Nc1ccccc1", "normalized growth": 0.0311}
{"molecule": "C=CC(=O)N1CCc2cc([N+](=O)[O-])ccc21", "normalized growth": 0.228}

Exercise: What does the record list as normalized growth for Cn1c([N+](=O)[O-])cnc1/C=C(\C#N)C(=O)Nc1ccc(F)cc1 ?
Solution: 0.0146

Exercise: What does the record list as normalized growth for Cc1cc(SCc2[nH]nc3oc(=O)cc(C)c23)c(Cl)cc1Cl ?
Solution: 0.968

Exercise: What does the record list as normalized growth for Cc1ccccc1C(=O)N1CCc2c([nH]c3ccccc23)C1C(F)(F)F (centres undefined) ?
Solution: 0.83

Exercise: What does the record list as normalized growth for NC(N)=Nc1nc(-c2cc(Cl)sc2Cl)cs1 ?
Solution: 0.904

Exercise: What does the record list as normalized growth for CC(C)(C)C1=NN(c2nc3ccc(Cl)cc3s2)C(=O)C1 ?
Solution: 0.00427

Exercise: What does the record list as normalized growth for O=C(Nc1cc(Cl)cc(Cl)c1)Nc1cc(-c2cccs2)[nH]n1 ?
Solution: 0.796

Exercise: What does the record list as normalized growth for C/C(=N/NC(N)=S)c1ccc(Oc2c(Cl)cncc2Cl)cc1 ?
Solution: 1.07

###

// reported normalized growth per item
# experiment description: chemical genetic growth profiling, strain panel (AID 1159580);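 note: tested at 20 µM; growth read once vehicle control cultures reached saturation at 30 °C; 1 = growth at the plate median or of vehicle wells; lower values mean less growth of the strain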
# condition info: S. cerevisiae deletion strains, growth OD, locus YOR070C, strain gyp1, active compounds read low
Hit rate of the full screen: of about 5,500 compounds, about 2,000 (36%) were called active. Inconclusive results (about 18%) are left out. Some of the results follow.
# print the numeric value only

Example entries and their recorded answers appear below.
{"compound": "CC1(C)C2CC[C@]3(C)C(C(=O)C=C4[C@@H]5C[C@@](C)(C(=O)O)CC[C@]5(C)CC[C@]43C)[C@@]2(C)CC[C@@H]1O (some centres undefined)", "endpoint value": 1.01}
{"compound": "CC(=O)O[C@]1(C(C)=O)CCC2C3C=C(C)C4=CC(=O)CCC4(C)C3CCC21C (some centres undefined)", "endpoint value": 0.967}
{"compound": "NC(=O)N1c2ccccc2CC(=O)c2ccccc21", "endpoint value": 1}
{"compound": "C1CCc2nnnn2CC1", "endpoint value": 0.999}
{"compound": "O=C1C[C@@H](c2ccc(O)cc2)Oc2cc(O)cc(O)c21", "endpoint value": 0.964}
{"compound": "CC1(C)C2CC[C@]3(C)C(C(=O)C=C4[C@@H]5C[C@@](C)(C(=O)O)CC[C@]5(C)CC[C@]43C)[C@@]2(C)CC[C@@H]1OC(=O)CCC(=O)O (some centres undefined)", "endpoint value": 0.986}
{"compound": "C[C@@H]1O[C@@H](O[C@H]2[C@@H](Oc3cc(O)c4c(c3)O[C@H](c3ccc(O)cc3)CC4=O)O[C@H](CO)[C@@H](O)[C@@H]2O)[C@H](O)[C@H](O)[C@H]1O", "endpoint value": 0.981}
{"compound": "CNC1(C)C2CCC(C2)C1(C)C (centres undefined)", "endpoint value": 0.997}

Consider the additional compound presented here.
Exercise: What does the record list as normalized growth for N#Cc1c(Cl)c(Cl)c(Cl)c(C#N)c1Cl ?
Solution: 0.0717
